src = the supplement of paper PMC10567573

B1: PPP2R2B (parent)
chain: PSNRSFFSEIISSISDVKFSHSGR

- Variants of: B1
- test: protein stability index of a GFP-peptide fusion (GPS, HEK-293T) (PSI 1-6); higher = more stable;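 further: lentivirally expressed fusions sorted by FACS into six bins by GFP to DsRed ratio, PSI derived from sequencing read proportions per bin multiplied by bin number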
- condition info: c terminus: a fixed tail appended
quantity kind: protein stability index
Numbers only.

# annotated cases, reported protein stability index shown
>>> value("H21T")
2.11
>>> value("F7E")
3.69
>>> value("N3Y")
2.55
>>> value("I14S")
3.19
>>> value("S12K")
2.49

Field: protein stability index. Fill in for each record below.
1. S13V
2. P1I

1. 1.99
2. 2.02
